The measurements presented in this section are drawn from patent US20250152729A1.

- targetEntity: T1, human SEMA4A expressed on cells (UniProt ID Q9H3S1, isoform 1) (human, UniProt Q9H3S1 33-761)
- T1 construct: Cell-surface SEMA4A: endogenous on MM.1S, NCI-H929 and Karpas-25 cells, or expi293 cells transfected with Origene SC323738; also called human Semaphorin4A; SEMA4A endogenously expressed on MM.1S cells
- T1 sequence: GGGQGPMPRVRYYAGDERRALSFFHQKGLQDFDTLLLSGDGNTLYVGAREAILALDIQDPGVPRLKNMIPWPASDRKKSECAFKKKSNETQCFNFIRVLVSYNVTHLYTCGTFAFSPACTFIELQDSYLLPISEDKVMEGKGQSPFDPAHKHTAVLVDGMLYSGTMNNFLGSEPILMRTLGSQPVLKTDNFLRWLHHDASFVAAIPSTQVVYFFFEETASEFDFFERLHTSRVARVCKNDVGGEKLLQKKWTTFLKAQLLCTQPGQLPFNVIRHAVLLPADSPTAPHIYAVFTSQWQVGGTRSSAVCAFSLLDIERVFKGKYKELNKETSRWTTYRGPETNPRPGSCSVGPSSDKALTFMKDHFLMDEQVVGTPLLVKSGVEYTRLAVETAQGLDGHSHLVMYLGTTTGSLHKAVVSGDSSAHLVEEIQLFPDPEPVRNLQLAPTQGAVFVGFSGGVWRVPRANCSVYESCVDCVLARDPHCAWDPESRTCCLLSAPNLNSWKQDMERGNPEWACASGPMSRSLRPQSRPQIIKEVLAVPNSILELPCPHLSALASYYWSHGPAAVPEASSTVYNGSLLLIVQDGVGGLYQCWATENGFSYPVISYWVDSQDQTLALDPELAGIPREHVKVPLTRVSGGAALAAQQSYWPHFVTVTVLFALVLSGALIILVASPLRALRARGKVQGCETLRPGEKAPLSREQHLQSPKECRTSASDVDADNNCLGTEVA
- methodDescription: Mirrorball epitope competition on MM.1S cells; competitor: fixed 5E3 mouse IgG1
measurementType: IC50 (nM)
Write the value in nM as a bare number.

stdin: // lookup IC50 for 5Hg1-5Lg1 human Alya IgG1 (antibody, V domains shown, Humanised 5E3; human IgG1 Alya constant (239iCys, S442C, EU), lambda light chain; purified, unconjugated) VH: QVQLVQSGAEVKKPGASVKVSCKASGYTFTDYWMHWVRQAPGQGLEWMGAIDTSDSYTSYNQKFKGRVTMTRDTSTSTVYMELSSLRSEDTAVYYCARDYGNFYYYAMDYWGQGTLVTVSS VL: QAVVTQEPSLTVSPGGTVTLTCRSSTGAVTTSNYANWFQQKPGQAPRTLIYGTNNRAPWTPARFSGSLLGGKAALTLSGAQPEDEAEYYCALWYSNHWVFGGGTKLTVL
stdout: 2
